For each of the compounds below, state its log10(EC50).
STUDY_TARGET: APOL1 G2 (Homo sapiens, UniProt O14791, DEL388-389)
Sequence (O14791 with tags, fused parts or gaps DEL388-389): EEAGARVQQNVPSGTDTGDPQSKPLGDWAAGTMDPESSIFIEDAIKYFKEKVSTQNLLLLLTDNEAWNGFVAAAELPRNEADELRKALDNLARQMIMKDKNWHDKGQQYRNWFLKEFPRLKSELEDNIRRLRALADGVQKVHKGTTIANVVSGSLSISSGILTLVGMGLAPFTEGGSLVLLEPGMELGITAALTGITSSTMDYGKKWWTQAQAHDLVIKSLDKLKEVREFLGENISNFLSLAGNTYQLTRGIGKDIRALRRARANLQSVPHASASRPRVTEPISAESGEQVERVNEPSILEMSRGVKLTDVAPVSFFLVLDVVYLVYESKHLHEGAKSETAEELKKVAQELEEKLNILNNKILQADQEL
PROCEDURE_SUMMARY: APOL1 G2 HEK293 rescue of cell death caused by overexpression of APOL1 (CellTiter-Glo)
CONDITION_CONTEXT: HEK293/T-REx APOL1 G2 clone #2, doxycycline induction, 17 hours, CellTiter-Glo luminescence; reversal of cell death; geometric mean of at least 2 assay runs
A value of 2 here means EC50 of 100 in nM, since values are log10.

Solved cases below.
# COMPOUND, log10(EC50)
records = [
    ("C[C@@H]1C[C@H](COc2ccc(S(C)(=O)=O)nc2)CN1CCc1cccc(C#N)c1", 1.71),
    ("CN1CC(S(=O)(=O)c2ccc(OC[C@@H]3CN(CCc4cccc(Cl)c4)CCN3)cc2)C1", 2.82),
]

Report log10(EC50) for every entry below.
1. C[C@@H]1C[C@H](COc2ccc(S(C)(=O)=O)cc2)CN1C1CCc2ccc(C#N)cc2C1 (single isomer, unassigned) [Compound 136]
2. CN=S(C)(=O)c1ccc(OC[C@H]2C[C@@H](C)N(C3CCc4ccc(C#N)cc4C3)C2)cc1 (single isomer, unassigned) [Compound 37]
3. C[C@@H]1CN(C2CCc3ccc(Cl)cc3C2)C[C@H]1COc1ccc(S(C)(=O)=O)cc1 (single isomer, unassigned) [Compound 16]

Return:
1: 2.85; 2: 2.89; 3: 2.85

Below is a list of compounds. For each, state its recorded log10(EC50).
1. CC(Cc1cc(Cl)cc(C#N)c1)N1C[C@@H](COc2ccc(S(C)(=O)=O)cc2)C[C@H]1C (single isomer, unassigned) [Compound 11]
2. CS(=O)(=O)c1ccc(OC[C@@H]2CN(CCc3cccc(C#N)c3)C[C@H]2CO)cc1
3. C[C@@H]1CN(CC(O)c2cccc(Cl)c2)C[C@H]1COc1ccc(S(C)(=O)=O)cc1 (single isomer, unassigned) [Compound 91]
4. C[C@@H]1CN(CC(CO)c2cc(Cl)cc(C#N)c2)C[C@H]1COc1ccc(S(C)(=O)=O)cc1 (stereo partly shown) [Compound 126]
5. CS(=O)(=O)c1ccc(OC[C@@H]2CN(CCc3cccc(Cl)c3)C[C@H]2CO)cc1

Return:
2.14
3.00
3.21
3.44
2.45

Enquiry: Reported log10(EC50) for C[C@@H]1C[C@H](COc2ccc(S(C)(=O)=O)nc2)CN1CC(O)c1cccc(C#N)c1 (single isomer, unassigned) [Compound 94] : what is it?
Return: 2.01

###

STUDY_TARGET: APOL1 G2 (Homo sapiens, UniProt O14791, DEL388-389)
Construct: expressed in transfected cells; host or cells: HEK293/T-REx APOL1 G2 clone #2, doxycycline-inducible
PROCEDURE_SUMMARY: APOL1 G2 FLIPR calcium influx assay (HEK T-REx/GCaMP6f/APOL1 G2 K6.3 cells)
Assay type: cell-based
CONDITION_CONTEXT: HEK293 clone expressing GCaMP6f, doxycycline-induced APOL1 G2; prevention of calcium influx; geometric mean of at least 2 assay runs
For each record, write down the corresponding AC50.
One number for each entry, in nM.

Past entries and their recorded results:
# COMPOUND, AC50 / nM
records = [
    ("C[C@@H]1C[C@H](COc2ccc(S(C)(=O)=O)nc2)CN1CC(O)c1cccc(C#N)c1 (single isomer, unassigned) [Compound 93]", 1250),
    ("CS(=O)(=O)c1ccc(OC[C@@H]2CN(C(CO)Cc3cccc(Cl)c3)CCN2)cc1 (single isomer, unassigned) [Compound 118]", 1250),
    ("C[C@H]1C[C@H](COc2ccc(S(C)(=O)=O)cc2)CN1CCc1cccc(Cl)c1", 936),
    ("C[C@@H]1CN(C2CCc3ccc(Cl)cc3C2)C[C@H]1COc1ccc(S(C)(=O)=O)cc1 (stereo partly shown) [Compound 14]", 767),
    ("CS(=O)(=O)c1ccc(OC[C@H]2C[C@H]3CCCC(Cc4cc(Cl)cc(C#N)c4)N3C2)cc1 (single isomer, unassigned)", 2210),
    ("C[C@@H]1C[C@H](COc2ccc(S(C)(=O)=O)cc2)CN1CC(CO)c1cc(Cl)cc(C#N)c1 (single isomer, unassigned) [Compound 129]", 4250),
    ("C[C@@H]1C[C@H](COc2ccc(S(C)(=O)=O)nc2)CN1CC(O)c1cccc(C#N)c1 (single isomer, unassigned) [Compound 94]", 614),
    ("CN=S(C)(=O)c1ccc(OC[C@@H]2CN(CCc3cccc(C#N)c3)C[C@H]2C)cn1 (stereo partly shown) [Compound 71]", 492),
    ("CC(=O)N1CC(S(=O)(=O)c2ccc(OC[C@@H]3CN(CCc4cccc(Cl)c4)CCN3)cc2)C1", 746),
    ("C[C@@H]1C[C@H](COc2ccc(S(=O)(=O)CCCS(C)(=O)=O)cc2)CN1C1CCc2c(C#N)cc(Cl)cc2C1 (single isomer, unassigned) [Compound 44]", 1380),
]

State the recorded AC50 for every item in the following list.
1. CC(C(O)c1cc(Cl)cc(C#N)c1)N1C[C@@H](COc2ccc(S(C)(=O)=O)cc2)C[C@H]1C (single isomer, unassigned) [Compound 97]
2. C[C@@H]1CN(C(CO)Cc2cc(Cl)cc(C#N)c2)C[C@H]1COc1ccc(S(C)(=O)=O)cc1 (single isomer, unassigned) [Compound 121]
3. C[C@@H]1C[C@H](COc2ccc(S(=O)(=O)CCCS(C)(=O)=O)cc2)CN1C1CCc2c(C#N)cccc2C1 (single isomer, unassigned) [Compound 41]

Return:
[813, 1110, 1180]
